molecular target: insulin (Homo sapiens); construct: purchased Roche 1376497; experiment: Kinetic analysis using surface plasmon resonance (Biacore T200), immobilized insulin; assay type: binding; conditions: Table 9, mutation study 5; MGSSHHHHHHGSS-[Y#####]-A
Sequence (P01308 25-54 limits assumed): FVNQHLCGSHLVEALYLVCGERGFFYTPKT
Sequence (P01308 90-110 limits assumed): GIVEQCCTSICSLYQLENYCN
Attribute: kd

>  <SUBSTANCE>
Y02709: insulin binding Y variant, Y00358 with I9L, SEQ ID NO:149 (LAEAKEAALAELDSKGVGAAKIKWIQDAKSVETVQFLKQAILAELPA; Engineered insulin binding Y variant)

>  <UNIT LABEL>
s⁻¹

>  <kd>
0.01

$$$$
>  <SUBSTANCE>
Y02710: insulin binding Y variant, Y00358 with K15Y, SEQ ID NO:150 (LAEAKEAAIAELDSYGVGAAKIKWIQDAKSVETVQFLKQAILAELPA; Engineered insulin binding Y variant)

>  <UNIT LABEL>
s⁻¹

>  <kd>
0.0027

$$$$
>  <SUBSTANCE>
Y02715: insulin binding Y variant, Y00358 with K15Y Q26E, SEQ ID NO:155 (LAEAKEAAIAELDSYGVGAAKIKWIEDAKSVETVQFLKQAILAELPA; Engineered insulin binding Y variant)

>  <UNIT LABEL>
s⁻¹

>  <kd>
0.0019

$$$$
>  <SUBSTANCE>
Y02717: insulin binding Y variant, Y00310 with K15Y Q26E, SEQ ID NO:157 (LAEAKEAAIAELDSYGVGAYQIKFIEIAHTVEEVQLMKQAILADLPA; Engineered insulin binding Y variant)

>  <UNIT LABEL>
s⁻¹

>  <kd>
0.02

$$$$
